Let's look at some compounds and their measured activity change, negative = inhibition.
# procedure details: AP1 Signaling Pathway (AID 357);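 note: ME-180 reporter cells stimulated with EGF at its EC50 level; % is set by controls: 0 for no effect and ±100 for the full control effect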
# conditions used: ME-180 (cervical carcinoma) AP-1-bla reporter, EGF-induced, beta-lactamase ratio, 5 h; at 17.2 µM (top of the series) unless noted
Results filed as inconclusive are left out. Calls of active or inactive are those of the source. Calls come from the whole dose curve; as a rule, active = well fitted curve in either direction with a large enough effect (not every such curve was filed as active); inconclusive = small, poorly fitted or top-dose-only effect, or another doubt; inactive = flat fitted curve, though single readings scatter.

input: // query activity change, negative = inhibition value for entry COc1ccccc1-n1c(O)c(C=NCCCn2ccnc2)c(=O)[nH]c1=O
output: 6.21% (inactive)

input: // query activity change, negative = inhibition value for entry CCCC12CN3CN(C1)CC(CCC)(C3)C2O (stereo not given)
output: 21.7% (inactive)

input: // query activity change, negative = inhibition value for entry O[C@@H]1CCCC[C@H]1N1CCC(c2ccccc2)CC1
output: -6.58% [at 38 µM] (inactive)

---

Let's look at some compounds and their measured remaining proliferation (% of control), lower = more inhibition.
# procedure details: qHTS profiling for inhibitors of Plasmodium falciparum (HB3) proliferation (AID 743324);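 note: 100% = DMSO vehicle wells and 0% = artemisinin-treated control wells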
# conditions used: Plasmodium falciparum HB3 blood-stage proliferation; at 28.7 µM (top of the series) unless noted
Returns: string containing the number followed by the unit.

Use the examples below as a reference point.
O=C1C(=O)c2ccccc2C(O)=C1C1CCC2(CC1)OOC1(O2)C2CC3CC(C2)CC1C3 (centres undefined): 0.423%
CSc1cccc(NC(=O)CC[C@H]2O[C@@H]3O[C@]4(C)CC[C@H]5[C@H](C)CC[C@@H]([C@@H]2C)[C@@]35OO4)c1: 0.997%
CCCCN(CCCC)CCC(OC(=O)O[C@H]1CCC[C@]2(C1)OOC1(O2)C2CC3CC(C2)CC1C3)c1cc2c(Cl)cc(Cl)cc2c2cc(C(F)(F)F)ccc12 (some centres undefined): 0.0614%

API: the following record is the query input.
input: // query remaining proliferation (% of control), lower = more inhibition value for entry CCCCN(CCCC)CCC(OC(=O)O[C@@H]1CCC[C@]2(C1)OOC1(O2)C2CC3CC(C2)CC1C3)c1cc2c(Cl)cc(Cl)cc2c2cc(C(F)(F)F)ccc12 (some centres undefined)
output: 0.359%

---

# Test system: ATS95
# procedure details: qHTS profiling for inhibitors of Plasmodium falciparum proliferation (AID 504749); note: nearly all actives have a fitted effect of over 60% in size
# conditions used: P. falciparum in erythrocytes, SYBR Green DNA, 72 h; series mostly up to 28.7 µM
Results filed as inconclusive are left out. Activity calls are given as the source filed them. The call rests on the fitted dose curve; in most records, active means well fitted inhibition curve with a large enough effect; inconclusive means small, poorly fitted or top-dose-only effect; inactive means flat fitted curve, though single readings scatter.
Hi there, use one of these labels in your reply, thanks! active, inactive

Known results for compounds:
NC(Cc1ccc(Oc2cc(I)c(O)c(I)c2)c(I)c1)C(=O)O (configuration not stated): inactive
C#CCN1CC(=O)N(COC(=O)[C@@H]2[C@@H](C=C(C)C)C2(C)C)C1=O: inactive
CCOC(=O)/C=C(C)/C=C/CC(C)CCCC(C)C (configuration not stated): inactive
CCC/C=C/C=C/C(=O)OC1/C(=C/C(=O)OC)CC2CC(C(C)O)OC(=O)CC(O)CC3CC(OC(C)=O)C(C)(C)C(O)(CC4C/C(=C/C(=O)OC)CC(/C=C\C(C)(C)C1(O)O2)O4)O3 (configuration not stated): active

Turning now to a further record.
input: Recorded call for CCCCCCC(=O)O[C@H]1CC[C@H]2[C@@H]3CCC4CC(=O)C=C(C)[C@]4(C)[C@H]3CC[C@]12C (some centres not stated) ?
output: inactive

---

# procedure details: S16 Schwann cell PMP22 intronic element beta-lactamase assay (AID 624044); note: nearly all actives have a fitted effect of over 15% in size
# conditions used: S16 rat Schwann cells, PMP22 element beta-lactamase FRET, 24 h
# Experimental: Description: Charcot-Marie-Tooth-Association [CMTA] National Center for Advancing Translational Sciences [NCATS] […] S16 Schwann cell PMP22 intronic element beta-lactamase assay The beta-Lac-expressing S16 cells were seeded in black clear-bottom 1536 well plates at between 500-750 cells/6uL in DMEM medium containing 10% FBS, w/o phenol red. […] The concentration-effect curves were then classified based on curve quality (r2), response magnitude and degree of measured activity.
Records with an inconclusive call do not appear. Calls of active or inactive are those of the source. Calls come from the whole dose curve.
Hi there, use one of these labels in your reply, thanks! active, inactive

input: Recorded call for COc1ccc2c3c1O[C@H]1[C@@H](O)C=C[C@H]4C(C2)NCCC341 (stereo not given in full) ?
output: inactive

input: Recorded call for CC[C@]1([C@H]2O[C@@H]([C@@H]3O[C@](O)(CO)[C@@H](C)C[C@H]3C)C[C@H]2C)CC[C@@H]([C@]2(C)CC[C@@]3(C[C@@H](O)[C@@H](C)[C@@H]([C@H](C)[C@H](OC)[C@H](C)C(=O)O)O3)O2)O1 ?
output: active

input: Recorded call for CCCN1CCCC2Cc3nc(N)ncc3CC21 (stereo not given) ?
output: inactive

input: Recorded call for C=CC[N+]1(C)CCC23c4c5ccc(O)c4O[C@H]2C(=O)CC[C@@]3(O)C1C5 (stereo not given in full) ?
output: inactive

input: Recorded call for [S]=[Sb][S][Sb]=[S] ?
output: inactive

---

# procedure details: Cell Viability - MRC5 (AID 434);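 note: cells exposed to compound for 40 hours at 37 °C; potency reflects cytotoxicity seen as loss of intracellular ATP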
# conditions used: MRC5 lung fibroblast viability, qHTS
# Description: NIH Chemical Genomics Center [NCGC] NIH Molecular Libraries Screening Centers Network [MLSCN] National Institutes of Environmental Health Sciences [NIEHS] National Toxicology Program [NTP] We have developed a 1536-well cell-based assay for quantitative high throughput screening (qHTS) against a number of cell lines to determine in vitro cytotoxicity of small molecules. […] 8. Detection; Luminescence; Viewlux plate reader […]
Results filed as inconclusive are left out. The source made the active and inactive calls. Calls follow the shape of the full dose curve.
Hi there, use one of these labels in your reply, thanks! True = active, False = inactive

Known results for compounds:
O=C(O)C1C(C(=O)O)C2(Cl)C(Cl)=C(Cl)C1(Cl)C2(Cl)Cl (stereo not given): False
N#CC(Cl)Cl: False
C#CCO: False

input: Recorded call for OC(c1ccc(Cl)cc1)(c1ccc(Cl)cc1)C(Cl)(Cl)Cl ?
output: False

input: Recorded call for C[C@@H]1CC[C@@]2(OC1)O[C@H]1[C@@H](O)[C@H]3[C@@H]4CC[C@H]5C[C@@H](O[C@@H]6O[C@H](CO)[C@H](O[C@@H]7O[C@H](CO)[C@@H](O)[C@H](O[C@@H]8OC[C@@H](O)[C@H](O)[C@H]8O)[C@H]7O[C@@H]7O[C@H](CO)[C@@H](O)[C@H](O[C@@H]8O[C@H](CO)[C@@H](O)[C@H](O)[C@H]8O)[C@H]7O)[C@H](O)[C@H]6O)[C@H](O)C[C@]5(C)[C@H]4CC[C@]3(C)[C@H]1[C@@H]2C ?
output: True

input: Recorded call for C(=NC1CCCCC1)=NC1CCCCC1 ?
output: False

input: Recorded call for COP(=O)(OC)O/C(=C\Cl)c1cc(Cl)c(Cl)cc1Cl ?
output: False

input: Recorded call for Cc1ccc(O)cc1C ?
output: False

input: Recorded call for N#CSCSC#N ?
output: True

input: Recorded call for Oc1c(Br)c(Br)c(Br)c(Br)c1Br ?
output: False

---

# system: Cytochrome P450 2D6 (Homo sapiens) (UniProt P10635)
# Sequence (P10635 whole entry, looked up): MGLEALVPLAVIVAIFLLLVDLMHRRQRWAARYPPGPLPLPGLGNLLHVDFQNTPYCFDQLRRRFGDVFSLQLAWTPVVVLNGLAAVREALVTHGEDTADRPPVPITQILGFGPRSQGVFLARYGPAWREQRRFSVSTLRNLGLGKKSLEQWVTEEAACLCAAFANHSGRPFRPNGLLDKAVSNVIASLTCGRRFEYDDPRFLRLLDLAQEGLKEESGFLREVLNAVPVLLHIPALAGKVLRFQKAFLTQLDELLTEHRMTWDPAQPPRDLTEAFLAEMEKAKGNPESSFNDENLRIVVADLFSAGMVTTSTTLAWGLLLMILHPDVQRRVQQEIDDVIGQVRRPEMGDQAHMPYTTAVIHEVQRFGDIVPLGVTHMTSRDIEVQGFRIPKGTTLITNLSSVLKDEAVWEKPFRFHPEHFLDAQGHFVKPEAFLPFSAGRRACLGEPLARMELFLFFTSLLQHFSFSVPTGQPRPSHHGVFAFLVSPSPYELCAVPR
# procedure details: qHTS Assay for Inhibitors and Substrates of Cytochrome P450 2D6 (AID 891); note: nearly all actives have a fitted effect of over 60% in size
# conditions used: recombinant CYP2D6, luciferin-ME EGE luminescence; series mostly up to 57.1 µM
# Method: NIH Molecular Libraries Screening Centers Network [MLSCN] NIH Chemical Genomics Center [NCGC] The P450 gene superfamily is involved in the metabolism and clearance of xenobiotics. […] The luciferin is then measured by luminescence after the addition of a luciferase detection reagent. […] Inhibitors and some substrates limit the production of luciferin, and decrease measured luminescence. […]
Records with an inconclusive call do not appear. Calls of active or inactive are those of the source. Calls come from the whole dose curve; as a rule, active = well fitted inhibition curve with a large enough effect; inconclusive = small, poorly fitted or top-dose-only effect; inactive = no such curve, though single readings can be large or run the other way.
Hi there, use one of these labels in your reply, thanks! active, inactive

Known results for compounds:
C[C@@]12CC[C@H](O)C[C@@H]1CC[C@H]1[C@H]2C[C@@H](O)[C@]2(C)[C@@H](C3=CC(=O)OC3)CC[C@@]12O: inactive
N[C@@H](Cc1cc(O)c(O)cc1O)C(=O)O: inactive
COc1ccc2c(c1)[C@]13CCCC[C@@H]1[C@H](C2)N(C)CC3: active
O=c1cccc2n1C[C@H]1C[C@@H]2CN(CCO)C1: inactive
C/C=C1\C[C@H](C)[C@](O)(CO)C(=O)OCC2=CCN3CC[C@@H](OC1=O)[C@@H]23: inactive
Ic1ccccc1CN[C@@H]1C2CCN(CC2)[C@H]1C(c1ccccc1)c1ccccc1: active
COCOc1ccc(Br)cc1C(=O)/C=C\c1ccc2c(c1)OCO2: active
COc1cc2c(cc1OC)-c1c(OC)c(OC)c(CO)c3c1[C@H](C2)N(C)CC3: inactive

input: Recorded call for CN1C[C@H](CO)C=C2c3cccc4[nH]cc(c34)C[C@H]21 ?
output: active

input: Recorded call for CC[C@@H]1CN2CC[C@@H]1C[C@H]2[C@@H](O)c1ccnc2ccc(OC)cc12 ?
output: active

input: Recorded call for CCC1=C(C[C@H]2NCCc3ccccc32)C[C@@H]2c3cc(OC)c(OC)cc3CCN2C1 ?
output: active

input: Recorded call for O[Si@](CCCN1CCCCC1)(c1ccc(F)cc1)C1CCCCC1 ?
output: active
